Just for reference, patent US6582714B1 is where these values come from.

Provide the reported WEIGHT INDEX of each item.
# System: A. aegypti mosquitoes
# measurement-notes: Olfactometer test (repellency from target air stream)
# Type: in vivo
# particulars: ratio of weight of ingredient versus weight of DEET to achieve RD90; 25° C.
Number, no unit, nothing else.

May I ask what WEIGHT INDEX has been recorded for C=CCC1=C(C)C(OC(=O)[C@@H]2[C@@H](C=C(C)C)C2(C)C)CC1=O (some centres unmarked) [Esbiothrin] ? 0.047

Now the compound CC1(C)[C@H](C=C(Cl)Cl)[C@H]1C(=O)OCc1c(F)c(F)cc(F)c1F [Transfluthrin] 0.0059

Now the compound C#CC(OC(=O)C1C(C=C(C)C)C1(C)C)/C(C)=C/CC (centres unmarked) [Vaporthrin] 0.058

Now the compound C=CCC1=C(C)C(OC(=O)C2C(C=C(C)C)C2(C)C)CC1=O (centres unmarked) [Allethrin (90% active), Allethrin] 0.085

Now the compound C=CCC1=C(C)C(OC(=O)[C@@H]2[C@@H](C=C(C)C)C2(C)C)CC1=O (some centres unmarked) [Bioallethrin] 0.058

---

# System: A. aegypti mosquitoes
# measurement-notes: Olfactometer test (repellency from target air stream)
# Assay type: in vivo
# particulars: ratio of weight of ingredient versus weight of DEET to achieve RD90; 25° C.
measured-property: WEIGHT INDEX
Number, no unit, nothing else.

May I ask what WEIGHT INDEX has been recorded for CCN(CC)C(=O)c1cccc(C)c1 [DEET, N,N-diethyl-meta-toluamide] ? 1.00

Now the compound Cc1c(F)c(F)c(COC(=O)[C@@H]2[C@H](/C=C(\Cl)C(F)(F)F)C2(C)C)c(F)c1F (racemic) 0.014

Now the compound `COP(=O)(OC)OC=C(Cl)Cl` 0.42

Now the compound C#CCC1=C(C)C(OC(=O)C2C(C=C(C)C)C2(C)C)CC1=O (centres unmarked) 0.058

---

# System: A. aegypti mosquitoes
# measurement-notes: Activity index calculation (volatility index x weight index)
# particulars: volatility index multiplied by weight index; DEET = 1.00
ACTIVITY INDEX less than 0.01 is Condition met; ACTIVITY INDEX greater than or equal to 0.01 is Condition not met.

Does C=CCC1=C(C)C(OC(=O)C2C(C=C(C)C)C2(C)C)CC1=O (centres unmarked) have ACTIVITY INDEX strictly under 0.01? Condition met

Now the compound C=CCC1=C(C)C(OC(=O)[C@@H]2[C@@H](C=C(C)C)C2(C)C)CC1=O (some centres unmarked) [Esbiothrin] Condition not met

Now the compound C#CCC1=C(C)C(OC(=O)C2C(C=C(C)C)C2(C)C)CC1=O (centres unmarked) Condition met

Now the compound CC1(C)[C@H](C=C(Cl)Cl)[C@H]1C(=O)OCc1c(F)c(F)cc(F)c1F [Transfluthrin] Condition met

Now the compound Cc1c(F)c(F)c(COC(=O)[C@@H]2[C@H](/C=C(\Cl)C(F)(F)F)C2(C)C)c(F)c1F (racemic) Condition not met

Now the compound C=CCC1=C(C)C(OC(=O)[C@@H]2[C@@H](C=C(C)C)C2(C)C)CC1=O (some centres unmarked) [Bioallethrin] Condition met

Now the compound C#CC(OC(=O)C1C(C=C(C)C)C1(C)C)/C(C)=C/CC (centres unmarked) Condition not met

Now the compound CCN(CC)C(=O)c1cccc(C)c1 [DEET, N,N-diethyl-meta-toluamide] Condition not met

Now the compound `COP(=O)(OC)OC=C(Cl)Cl` Condition not met

---

# measurement-notes: Volatility index calculation (concentration in air from vapor pressure)
# Assay type: physicochemical
# particulars: calculated from vapor pressure by ideal gas equation; 20 to 25° C.
measured-property: CONCENTRATION IN AIR

May I ask what CONCENTRATION IN AIR has been recorded for C=CCC1=C(C)C(OC(=O)[C@@H]2[C@@H](C=C(C)C)C2(C)C)CC1=O (stereo partly drawn) [Bioallethrin] ? 1.46 × 10^−6 grams per liter

Now the compound CC1(C)C(C=C(Cl)Cl)C1C(=O)OCc1cccc(Oc2ccccc2)c1 (stereo not drawn) 7.11 × 10^−9 grams per liter

Now the compound C#CCC1=C(C)C(OC(=O)C2C(C=C(C)C)C2(C)C)CC1=O (stereo not drawn) 5.80 × 10^−7 grams per liter

Now the compound CCN(CC)C(=O)c1cccc(C)c1 [DEET, N,N-diethyl-meta-toluamide] 1.72 × 10^−5 grams per liter

Now the compound C=CCC1=C(C)C(OC(=O)[C@@H]2[C@@H](C=C(C)C)C2(C)C)CC1=O (stereo partly drawn) [Esbiothrin] 5.35 × 10^−6 grams per liter

Now the compound CC(C)=CC1C(C(=O)OC(C#N)c2cccc(Oc3ccccc3)c2)C1(C)C (stereo not drawn) 1.85 × 10^−8 grams per liter

Now the compound `COP(=O)(OC)OC=C(Cl)Cl` 2.63 × 10^−5 grams per liter

Now the compound C#CC(OC(=O)C1C(C=C(C)C)C1(C)C)/C(C)=C/CC (stereo not drawn) 9.75 × 10^−6 grams per liter

Now the compound Cc1c(F)c(F)c(COC(=O)[C@@H]2[C@H](/C=C(\Cl)C(F)(F)F)C2(C)C)c(F)c1F (racemic) 1.37 × 10^−5 grams per liter

Now the compound CC1(C)C(C=C(Cl)Cl)C1C(=O)OC(C#N)c1ccc(F)c(Oc2ccccc2)c1 (stereo not drawn) <7.11 × 10^−9 grams per liter

Now the compound C=CCC1=C(C)C(OC(=O)C2C(C=C(C)C)C2(C)C)CC1=O (stereo not drawn) 1.92 × 10^−6 grams per liter

Now the compound CC1(C)[C@H](C=C(Cl)Cl)[C@H]1C(=O)OCc1c(F)c(F)cc(F)c1F [Transfluthrin] 6.09 × 10^−8 grams per liter

---

# measurement-notes: Volatility index calculation (concentration in air from vapor pressure)
# Format: physicochemical
# particulars: concentration in the air relative to DEET at 20 to 25° C.
VOLATILITY INDEX less than 0.09 is criterion met; VOLATILITY INDEX greater than or equal to 0.09 is criterion not met.

Does C=CCC1=C(C)C(OC(=O)[C@@H]2[C@@H](C=C(C)C)C2(C)C)CC1=O (stereo partly drawn) [Bioallethrin] have VOLATILITY INDEX strictly under 0.09? criterion met

Now the compound CCN(CC)C(=O)c1cccc(C)c1 [DEET, N,N-diethyl-meta-toluamide] criterion not met

Now the compound CC1(C)C(C=C(Cl)Cl)C1C(=O)OCc1cccc(Oc2ccccc2)c1 (stereo not drawn) criterion met

Now the compound `COP(=O)(OC)OC=C(Cl)Cl` criterion not met

Now the compound C=CCC1=C(C)C(OC(=O)[C@@H]2[C@@H](C=C(C)C)C2(C)C)CC1=O (stereo partly drawn) [Esbiothrin] criterion not met

Now the compound Cc1c(F)c(F)c(COC(=O)[C@@H]2[C@H](/C=C(\Cl)C(F)(F)F)C2(C)C)c(F)c1F (racemic) criterion not met

Now the compound C#CC(OC(=O)C1C(C=C(C)C)C1(C)C)/C(C)=C/CC (stereo not drawn) criterion not met

Now the compound C#CCC1=C(C)C(OC(=O)C2C(C=C(C)C)C2(C)C)CC1=O (stereo not drawn) criterion met

Now the compound C=CCC1=C(C)C(OC(=O)C2C(C=C(C)C)C2(C)C)CC1=O (stereo not drawn) criterion not met

Now the compound CC1(C)C(C=C(Cl)Cl)C1C(=O)OC(C#N)c1ccc(F)c(Oc2ccccc2)c1 (stereo not drawn) criterion met

Now the compound CC1(C)[C@H](C=C(Cl)Cl)[C@H]1C(=O)OCc1c(F)c(F)cc(F)c1F [Transfluthrin] criterion met

Now the compound CC(C)=CC1C(C(=O)OC(C#N)c2cccc(Oc3ccccc3)c2)C1(C)C (stereo not drawn) criterion met

---

# Test system: A. aegypti mosquitoes
# measurement-notes: Olfactometer test (repellency from target air stream)
# Type: in vivo
# particulars: ratio of weight of ingredient versus weight of DEET to achieve RD90; 25° C.
measured-property: WEIGHT INDEX

>>> reported_value("CC1(C)C(C=C(Cl)Cl)C1C(=O)OC(C#N)c1ccc(F)c(Oc2ccccc2)c1 (stereo not drawn)")
">10.5"
>>> reported_value("CNC(=O)Oc1ccccc1OC(C)C")
">1.26"
>>> reported_value("CC(C)=CC1C(C(=O)OC(C#N)c2cccc(Oc3ccccc3)c2)C1(C)C (stereo not drawn)")
"˜10.5"
